- Test system: Trypanosoma brucei brucei
- method: Effective dose required to inhibit the growth of Trypanosoma brucei
- Type: functional
- test settings: read-out: ED50 (the source's name)
pEC50: −log10 of the molar value.
Record form. Attribute: pEC50. Fill in for each entry.

Some compounds with known pEC50 results, for comparison:
[[record]]
smiles_data = "CSCNC(=O)c1ccc(NCc2cncn2Cc2ccc(C#N)cc2)cc1-c1ccccc1"
target_entity = "Trypanosoma brucei brucei"
quantity = "pEC50"
observed_result = "< 5.00"

[[record]]
smiles_data = "CSCC[C@H](NC(=O)c1ccc(CNCc2[nH]cnc2C)cc1-c1ccccc1C)C(=O)O"
target_entity = "Trypanosoma brucei brucei"
quantity = "pEC50"
observed_result = "< 5.00"

[[record]]
smiles_data = "CSCC[C@H](NC(=O)c1ccc(NCc2cncn2Cc2cccc(Cl)c2)cc1-c1ccccc1)C(=O)O"
target_entity = "Trypanosoma brucei brucei"
quantity = "pEC50"
observed_result = "< 5.00"


Please state pEC50 for every compound in the list that follows.
1. N#Cc1ccc(Cn2cncc2CNc2ccc(C(=O)Nc3cccc(C#N)c3)c(-c3ccccc3)c2)cc1
2. CSCC[C@H](NC(=O)c1ccc(NCc2cncn2Cc2ccccc2Cl)cc1-c1ccccc1)C(=O)O
3. CSCC[C@H](NC(=O)c1ccc(NCc2cncn2Cc2ccccc2C#N)cc1-c1ccccc1)C(=O)O
4. N#CCNC(=O)c1ccc(NCc2cncn2Cc2ccc(C#N)cc2)cc1-c1ccccc1
5. CSCC[C@H](NC(=O)c1ccc(NCc2cncn2Cc2ccc(-c3ccccc3)cc2)cc1-c1ccccc1)C(=O)O

Response given:
< 5.00
< 5.00
< 5.00
< 5.00
< 5.00

====

- System: protein farnesyltransferase (Trypanosoma brucei)
- method: Inhibition of against Trypanosoma brucei protein farnesyltransferase at 50 nM concentration
quantity: inhibition (%)
One number for each entry, in %.

[[record]]
compound = "N#Cc1ccc(Cn2cncc2CNc2ccc(C(=O)NCc3ccccc3)c(-c3ccccc3)c2)cc1"
target_entity = "protein farnesyltransferase (Trypanosoma brucei)"
observed_result = 1.2

[[record]]
compound = "COC(=O)[C@H](CCSC)NC(=O)c1ccc(NCc2cncn2Cc2ccccc2Cl)cc1-c1ccccc1"
target_entity = "protein farnesyltransferase (Trypanosoma brucei)"
observed_result = 0

[[record]]
compound = "CSCC[C@H](NC(=O)c1ccc(CNCc2[nH]cnc2C)cc1-c1ccccc1C)C(=O)O"
target_entity = "protein farnesyltransferase (Trypanosoma brucei)"
observed_result = 68.5


Please state inhibition for every compound in the list that follows.
1. COC(=O)[C@H](CCSC)NC(=O)c1ccc(CNCc2c[nH]cn2)cc1-c1ccccc1C
2. CSCC[C@H](NC(=O)c1ccc(NCc2cn(CC3CCCCC3)cn2)cc1-c1ccccc1)C(=O)O
3. N#Cc1ccc(Cn2cncc2CNc2ccc(C(=O)Nc3cccc(C#N)c3)c(-c3ccccc3)c2)cc1

Response given:
1: 41; 2: 12; 3: 2.2

====

Record form. Attribute: pEC50. Fill in for each entry.
- System: Trypanosoma brucei brucei
- method: Effective dose required to inhibit the growth of Trypanosoma brucei
- Assay type: functional
- test settings: read-out: ED50 (the source's name)
pEC50: −log10 of the molar value.

Some molecules with known pEC50 results, for comparison:
[[record]]
smiles_data = "CSCC[C@H](NC(=O)c1ccc(NCc2cncn2Cc2cccc(C)c2)cc1-c1ccccc1)C(=O)O"
target_entity = "Trypanosoma brucei brucei"
observed_result = "< 5.00"

[[record]]
smiles_data = "CSCC[C@H](NC(=O)c1ccc(NC(=O)Cc2cncn2C)cc1-c1ccccc1C)C(=O)O"
target_entity = "Trypanosoma brucei brucei"
observed_result = "< 4.60"


Please state pEC50 for every molecule in the list that follows.
1. CSCC[C@H](NC(=O)c1ccc(NC[C@@H](N)CS)cc1-c1ccccc1)C(=O)O
2. CC(C)NC(=O)c1ccc(NCc2cncn2Cc2ccc(C#N)cc2)cc1-c1ccccc1
3. CSCC[C@H](NC(=O)c1ccc(NCc2cncn2Cc2ccc(C)cc2)cc1-c1ccccc1)C(=O)O
4. CSCC[C@H](NC(=O)c1ccc(NCc2cncn2Cc2cccc(C#N)c2)cc1-c1ccccc1)C(=O)O
5. CSCC[C@H](NC(=O)c1ccc(NCc2cncn2Cc2ccc(C#N)cc2)cc1-c1ccccc1)C(=O)O
6. CSCC[C@H](NC(=O)c1ccc(NCc2cncn2Cc2ccc([N+](=O)[O-])cc2)cc1-c1ccccc1)C(=O)O

Response given:
1. < 4.60
2. < 5.00
3. < 5.00
4. < 5.00
5. < 5.00
6. < 5.00

====

- Test system: protein farnesyltransferase (Trypanosoma brucei)
- method: Inhibition of against Trypanosoma brucei protein farnesyltransferase at 50 nM concentration
Decide by inhibition: equal to or exceeding 8% means Condition met, less means Condition not met.

[[record]]
compound = "COC(=O)[C@H](CCSC)NC(=O)c1ccc(CNCc2cncn2Cc2ccc(C#N)cc2)cc1-c1ccccc1C"
assigned_class = "Condition not met"


Challenge: Entry C=COC(=O)[C@H](CCSC)NC(=O)c1ccc(CNCc2c[nH]cn2)cc1-c1ccccc1C : is its inhibition no less than 8%?
Response given: Condition not met

Challenge: Entry CSCNC(=O)c1ccc(NCc2cncn2Cc2ccc(C#N)cc2)cc1-c1ccccc1 : is its inhibition no less than 8%?
Response given: Condition met

====

- System: protein farnesyltransferase (Trypanosoma brucei)
- method: Inhibition of against Trypanosoma brucei protein farnesyltransferase at 50 nM concentration
Ranges used to classify inhibition: lo (below 10%), mid (10% to below 70%), hi (70% or more)

[[record]]
compound = "COC(=O)[C@H](CCSC)NC(=O)c1ccc(NCc2cncn2Cc2ccccc2C)cc1-c1ccccc1"
target_entity = "protein farnesyltransferase (Trypanosoma brucei)"
assigned_class = "lo"

[[record]]
compound = "COC(=O)[C@H](CCSC)NC(=O)c1ccc(CN(Cc2c[nH]cn2)Cc2c[nH]cn2)cc1-c1ccccc1C"
target_entity = "protein farnesyltransferase (Trypanosoma brucei)"
assigned_class = "mid"

[[record]]
compound = "N#Cc1ccc(Cn2cncc2CNc2ccc(C(=O)NCC3CCCCC3)c(-c3ccccc3)c2)cc1"
target_entity = "protein farnesyltransferase (Trypanosoma brucei)"
assigned_class = "mid"


Next:
Challenge: State the band of CCCCC(CC)OC(=O)[C@H](CCSC)NC(=O)c1ccc(CNCc2c[nH]cn2)cc1-c1ccccc1C (some centres not stated)
Response given: mid

====

Record form. Attribute: inhibition. Fill in for each entry.
- Tested on: protein farnesyltransferase (Trypanosoma brucei)
- method: Inhibition of against Trypanosoma brucei protein farnesyltransferase at 50 nM concentration
Give bare numbers, in %.

Some molecules with known inhibition results, for comparison:
[[record]]
smiles_data = "CSCC[C@H](NC(=O)c1ccc(CNCc2c[nH]cn2)cc1-c1ccccc1C)C(=O)OCc1ccccc1"
observed_result = 41.7

[[record]]
smiles_data = "COC(=O)[C@H](CCSC)NC(=O)c1ccc(NCc2cncn2Cc2ccccc2C#N)cc1-c1ccccc1"
observed_result = 0

[[record]]
smiles_data = "CSCC[C@H](NC(=O)c1ccc(NCc2cncn2CC2CCCCC2)cc1-c1ccccc1)C(=O)O"
observed_result = 69.8


Please state inhibition for every molecule in the list that follows.
1. CCOC(=O)[C@H](CCSC)NC(=O)c1ccc(CNCc2c[nH]cn2)cc1-c1ccccc1C
2. CCCCCn1cncc1CNc1ccc(C(=O)N[C@@H](CCSC)C(=O)O)c(-c2ccccc2)c1
3. CSCC[C@H](NC(=O)c1ccc(NC(=O)Cc2cncn2C)cc1-c1ccccc1C)C(=O)O
4. CC(C)NC(=O)c1ccc(NCc2cncn2Cc2ccc(C#N)cc2)cc1-c1ccccc1
5. CCCCCn1cnc(CNc2ccc(C(=O)N[C@@H](CCSC)C(=O)O)c(-c3ccccc3)c2)c1

Response given:
[10.4, 80.6, 83.2, 8.4, 11.5]
